experiment: NCI Yeast Anticancer Drug Screen. Data for the mec2-1 strain (AID 157); settings: S. cerevisiae mec2-1 strain, at 50.0 µM
The panel holds about 79,000 compounds, 15% with a hit somewhere; the sample as a whole holds those more often. Active and inactive are the calls of the source. Rule as the data show it: active = growth inhibition above about 70%; inactive = the rest.
Outcome codes: true = active, false = inactive

[
  {
    "Molecule": "O=C(O)c1cc(Br)ccc1OCc1ccc(Cl)cc1",
    "Class name": "false"
  },
  {
    "Molecule": "COc1ccc2ccc(OC)c(C=O)c2c1",
    "Class name": "false"
  },
  {
    "Molecule": "CSC(=Nc1ccc(Cl)cc1)N1CC=Cc2ccccc21",
    "Class name": "false"
  },
  {
    "Molecule": "Cn1nc(-c2ccc3c(c2)OCO3)[n+]([O-])c2c(=O)n(C)c(=O)nc1-2",
    "Class name": "true"
  },
  {
    "Molecule": "Oc1ccc(/C=N/NC(=S)NC2CC3CC2C2C=CCC32)c(O)c1 (stereo unspecified)",
    "Class name": "true"
  },
  {
    "Molecule": "O=C(CC(=O)c1ccccc1)CC(=O)c1ccccc1Cl",
    "Class name": "true"
  },
  {
    "Molecule": "COC(=O)/C=C/c1cccc[n+]1[O-]",
    "Class name": "false"
  },
  {
    "Molecule": "O=C(C[n+]1ccccc1Cl)c1ccc(F)cc1",
    "Class name": "false"
  },
  {
    "Molecule": "Cn1c(=O)c2c(ncn2-c2ccncc2)n(C)c1=O",
    "Class name": "false"
  },
  {
    "Molecule": "CCCCC#CC(=O)OCCCCC",
    "Class name": "false"
  },
  {
    "Molecule": "CCOC(=O)c1c(N)c(=O)n2c3c(cccc13)CC2",
    "Class name": "true"
  },
  {
    "Molecule": "O=C1C(=C2C(=O)c3ccccc3[N+]2=O)N([O-])c2ccccc21",
    "Class name": "false"
  },
  {
    "Molecule": "CCOC(=O)NC(=S)Nc1ccsc1",
    "Class name": "false"
  },
  {
    "Molecule": "CCCCc1ccc(Nc2nc(N)c3[nH]cnc3n2)cc1",
    "Class name": "true"
  },
  {
    "Molecule": "COC(=O)c1ccc2c(c1)C(O)NC(=O)O2 (stereo unspecified)",
    "Class name": "true"
  },
  {
    "Molecule": "N#CC(Cc1ccc(CC(C#N)(c2ccccc2)c2ccccn2)cc1)(c1ccccc1)c1ccccn1 (stereo unspecified)",
    "Class name": "false"
  },
  {
    "Molecule": "Oc1ccc(-c2ccccc2)cc1O",
    "Class name": "true"
  },
  {
    "Molecule": "CCCCCOCC(=O)OC",
    "Class name": "false"
  },
  {
    "Molecule": "Nc1ncnc2c1c(-c1ccccc1)cn2-c1ccccc1",
    "Class name": "true"
  },
  {
    "Molecule": "O=C1CC2(CCN(CC3COc4ccccc4O3)CC2)C(=O)N1N1CCCCCC1 (stereo unspecified)",
    "Class name": "true"
  },
  {
    "Molecule": "O=C1C=CC(=O)c2ccc(=O)ccc21",
    "Class name": "false"
  },
  {
    "Molecule": "O=C1C(=O)C(Cc2ccccc2)(c2ccccc2)C(=O)N1c1ccccc1 (stereo unspecified)",
    "Class name": "false"
  },
  {
    "Molecule": "CC(O[Si](C)(C)C(C)(C)C)C(=O)Sc1ccccn1 (stereo unspecified)",
    "Class name": "true"
  },
  {
    "Molecule": "CC(=O)Sc1ccc(Br)cc1",
    "Class name": "false"
  },
  {
    "Molecule": "CC(=O)Nc1ccc(/C=C2/NC(=S)N(/C=C3\\C(=O)Oc4ccccc4C3=O)C2=O)cc1",
    "Class name": "true"
  },
  {
    "Molecule": "CCCC(=O)Oc1ccc(OCc2ccccc2)cc1",
    "Class name": "false"
  },
  {
    "Molecule": "Cc1ccc(S(=O)(=O)CC2(Br)Cc3ccccc3C2=O)cc1 (stereo unspecified)",
    "Class name": "true"
  },
  {
    "Molecule": "COc1cc2c(c(OC)c1OC)-c1ccc(O)c(=O)cc1C(N=Cc1ccccc1)CC2 (stereo unspecified)",
    "Class name": "false"
  },
  {
    "Molecule": "N#CI1OC(C(F)(F)F)(C(F)(F)F)c2ccccc21",
    "Class name": "true"
  },
  {
    "Molecule": "O=C(O)/C=C/CCC1SCC2NC(=O)NC21 (stereo unspecified)",
    "Class name": "true"
  },
  {
    "Molecule": "O=c1oc2ccccc2c(O)c1/C=N\\c1nc(-c2ccccc2)cs1",
    "Class name": "false"
  },
  {
    "Molecule": "Cc1ccc(NNC2=NC(=S)NC(=O)C2)cc1",
    "Class name": "true"
  },
  {
    "Molecule": "CC1NC(=O)OC1(C)c1ccccc1 (stereo unspecified)",
    "Class name": "false"
  },
  {
    "Molecule": "CN(C)C(=S)SSSSC(=S)N(C)C",
    "Class name": "true"
  },
  {
    "Molecule": "CCN1CCC(O)(/C=C/c2cccc(C)c2)C(C(=O)/C=C/c2cccc(C)c2)C1 (stereo unspecified)",
    "Class name": "true"
  },
  {
    "Molecule": "CCCCCCCCCCCCNCc1ccc(Cl)c(Cl)c1",
    "Class name": "true"
  },
  {
    "Molecule": "OCC(CCc1c[nH]c2ccccc12)c1c[nH]c2ccccc12 (stereo unspecified)",
    "Class name": "true"
  },
  {
    "Molecule": "BrC1=CC(Br)=C2N=C(C(Br)(Br)Br)N=C3N=C(C(Br)(Br)Br)N=C1N32",
    "Class name": "true"
  },
  {
    "Molecule": "CCN(CC)c1cc(Nc2c3ccc(Cl)cc3nc3cc(Cl)ccc23)ccc1O",
    "Class name": "false"
  },
  {
    "Molecule": "CSc1c(S(C)=O)c2ccccc2n1C (stereo unspecified)",
    "Class name": "false"
  },
  {
    "Molecule": "O=c1nc(NC(c2ccccc2)(c2ccccc2)c2ccccc2)ccn1CCNCCn1ccc(NC(c2ccccc2)(c2ccccc2)c2ccccc2)nc1=O",
    "Class name": "true"
  },
  {
    "Molecule": "C=C(CC)C[C@@H]1C[C@]2(C(=O)OC)c3[nH]c4ccccc4c3CCN2C1=O",
    "Class name": "false"
  },
  {
    "Molecule": "Cc1ccc(CC2(C(=O)O)Cc3ccc(C)cc3C2)cc1 (stereo unspecified)",
    "Class name": "true"
  },
  {
    "Molecule": "CSc1nc2nn(Cc3ccccc3)cc2c(=O)[nH]1",
    "Class name": "false"
  },
  {
    "Molecule": "COC(=O)/C=N/O",
    "Class name": "false"
  },
  {
    "Molecule": "CCCCCCCCCCCCCCSC(=N)N",
    "Class name": "true"
  }
]
